target-entity: EPHB1 (human)
procedure-summary: KINOMEscan competition binding
condition-summary: compound 10.0 µM
reported-endpoint: kinase still bound, per cent of control (%)
Only the number, expressed in %, is required.

compound | unit-info | endpoint-value
C=CC(=O)Nc1cc(NC(=O)c2ccc(C)c(NC(=O)c3ccno3)c2)cc(C(F)(F)F)c1 | % | 79
OCCCNc1cc(-c2ccnc(Nc3cccc(Cl)c3)n2)ccn1 | % | 100
COc1cc(C(=O)NC2CCN(C)CC2)ccc1Nc1ncc2c(n1)N(C1CCCC1)C(C)CC(=O)N2C (centres undefined) | % | 100

Assign kinase still bound, per cent of control to the following record: O=C(NOC[C@H](O)CO)c1ccc(F)c(F)c1Nc1ccc(I)cc1F 100

Assign kinase still bound, per cent of control to the following record: CN(C)C/C=C/C(=O)Nc1cccc(Nc2ncc3c(n2)N(C)c2ccccc2C(=O)N3C)c1 90
